System: Setaria viridis (SETVI)
Assay: Herbicidal post-emergence action
Type: in vivo
Conditions: 1280 g/ha, assessed after ca. 3 weeks
Property name: Post-emergence activity against SETVI (%)
Kindly answer with a numeric value in %, unit omitted.

Consider the worked cases shown below.
[[record]]
molecule = "O=C(O)CC1CCC(=O)N1Cc1cccc(F)c1F (single isomer, unassigned) [Example I-014]"
number = 90

[[record]]
molecule = "CS(=O)(=O)NC(=O)CC1CCC(=O)N1Cc1cccc(F)c1F (racemic)"
number = 90

[[record]]
molecule = "CC(C)CC(NC(=O)CC1CCC(=O)N1Cc1cccc(F)c1F)C(=O)O (mixture of isomers)"
number = 80

[[record]]
molecule = "CC1(C)CC(=O)C(C(=O)CC2CCC(=O)N2Cc2cccc(F)c2F)C(=O)C1 (racemic)"
number = 80

[[record]]
molecule = "O=C(CC1CCC(=O)N1Cc1cccc(F)c1F)NC(Cc1ccccc1)C(=O)O (mixture of isomers)"
number = 80

[[record]]
molecule = "O=C(O)CC1CCC(=O)N1Cc1cccc(F)c1F (centres unmarked) [Example I-003]"
number = 80


Query string: State, in one line, measured Post-emergence activity against SETVI of O=C(O)CC1CCC(=O)N1Cc1cccc(Cl)c1F (racemic)
Result string: 80

Query string: State, in one line, measured Post-emergence activity against SETVI of CC[C@@H](C)[C@@H](NC(=O)CC1CCC(=O)N1Cc1cccc(F)c1F)C(=O)O (single isomer, unassigned)
Result string: 80

Query string: State, in one line, measured Post-emergence activity against SETVI of COc1ccc(OCCOC(=O)CC2CCC(=O)N2Cc2cccc(F)c2F)cc1 (racemic)
Result string: 80

Query string: State, in one line, measured Post-emergence activity against SETVI of C#CCOC(=O)CC1CCC(=O)N1Cc1cccc(F)c1F (racemic)
Result string: 80

Query string: State, in one line, measured Post-emergence activity against SETVI of O=C(CC1CCC(=O)N1Cc1cccc(F)c1F)OCCSc1ccccc1 (racemic)
Result string: 90

Query string: State, in one line, measured Post-emergence activity against SETVI of O=C(CC1CCC(=O)N1Cc1cccc(F)c1F)OC1CCC1 (racemic)
Result string: 80

Query string: State, in one line, measured Post-emergence activity against SETVI of Cc1ccc(OCCOC(=O)CC2CCC(=O)N2Cc2cccc(F)c2F)cc1 (centres unmarked)
Result string: 80

Query string: State, in one line, measured Post-emergence activity against SETVI of CSCCOC(=O)CC1CCC(=O)N1Cc1cccc(F)c1F (racemic)
Result string: 90

Query string: State, in one line, measured Post-emergence activity against SETVI of CS(=O)(=O)CCOC(=O)CC1CCC(=O)N1Cc1cccc(F)c1F (racemic)
Result string: 80

Query string: State, in one line, measured Post-emergence activity against SETVI of COCC(=O)CC(=O)CNC(=O)CC1CCC(=O)N1Cc1cccc(F)c1F (racemic)
Result string: 80

Query string: State, in one line, measured Post-emergence activity against SETVI of COCCOC(=O)CC1CCC(=O)N1Cc1cccc(F)c1F (racemic)
Result string: 90

Query string: State, in one line, measured Post-emergence activity against SETVI of C=CCOC(=O)CC1CCC(=O)N1Cc1cccc(F)c1F (racemic)
Result string: 90

Query string: State, in one line, measured Post-emergence activity against SETVI of COC(=O)CC1CCC(=O)N1Cc1cccc(F)c1F (racemic)
Result string: 80

Query string: State, in one line, measured Post-emergence activity against SETVI of O=C(CC1CCC(=O)N1Cc1cccc(F)c1F)OCCSc1ccc(Cl)cc1 (racemic)
Result string: 80

Query string: State, in one line, measured Post-emergence activity against SETVI of CC[C@H](C)[C@H](NC(=O)CC1CCC(=O)N1Cc1cccc(F)c1F)C(=O)O (single isomer, unassigned)
Result string: 90

Query string: State, in one line, measured Post-emergence activity against SETVI of COC(=O)C(C(=O)CC1CCC(=O)N1Cc1cccc(F)c1F)C(=O)OC (racemic)
Result string: 80

Query string: State, in one line, measured Post-emergence activity against SETVI of Cc1ccc(CN2C(=O)CCC2CC(=O)O)c(F)c1F (racemic)
Result string: 100

These entries and their values trace back to patent US20240199542A1.
